Reference for the values: patent US10703765B2

This listing pairs molecules with measured pKi.
# assaySystem: human σ1 receptor (Homo sapiens)
# Sequence (Q99720 whole entry): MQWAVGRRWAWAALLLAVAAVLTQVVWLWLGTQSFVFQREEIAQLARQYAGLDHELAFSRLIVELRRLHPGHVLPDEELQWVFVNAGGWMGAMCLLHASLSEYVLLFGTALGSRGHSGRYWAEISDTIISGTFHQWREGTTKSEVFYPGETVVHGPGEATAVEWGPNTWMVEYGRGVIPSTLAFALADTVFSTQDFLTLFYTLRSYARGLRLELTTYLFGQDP
# protocolText: biochemical
# Assay type: binding
pKi: −log10 of the molar value. Structures can show the parent of a compound that is named as a salt.

Worked examples follow.
molecule	pKi
COc1ccccc1CCN1CCC2(CC1)CN(c1ccccc1)C(=O)C(C)O2 (stereo not shown) [Example 57, hydrochloride]	> 7.00
CC1OC2(CCN(CCc3ccccc3)CC2)CN(Cc2ccn(C)n2)C1=O (stereo not shown)	> 6.30
CC1COC2(CCN(CCc3ccccc3)CC2)CN1c1ccccc1 (stereo not shown) [Example 340, hydrochloride]	> 6.30
CC1OC2(CCN(CCc3cccc(C(N)=O)c3)CC2)CN(c2ccccc2)C1=O (stereo not shown)	> 6.30
O=C1COC2(CCN(CCc3ccccc3)CC2)CN1Cc1ccc(C(F)(F)F)cn1 [Example 177, hydrochloride]	> 7.00
CC(C)C1OC2(CCN(CCc3ccccn3)CC2)CN(c2ccccc2F)C1=O (stereo not shown) [Example 313, hydrochloride]	> 6.30
CC1OC2(CCN(CCc3cccc(NC(N)=O)n3)CC2)CN(c2ccccc2)C1=O (stereo not shown)	> 6.30
CC1OC2(CCN(CCc3ncccc3C(F)(F)F)CC2)CN(c2ccccc2)C1=O (stereo not shown) [Example 33, hydrochloride]	> 6.30

Look up pKi: CC1OC2(CCN(CCc3cccnc3N)CC2)CN(c2ccccc2)C1=O (stereo not shown) [Example 234, hydrochloride]
> 6.30

Dear colleague, I am looking for the recorded pKi of the following molecule: CC1OC2(CCN(CCc3ccccc3)CC2)CN(c2ccc3c(c2)OCO3)C1=O (stereo not shown) [Example 202, hydrochloride]
> 6.30

Look up pKi for this molecule: CC1OC2(CCN(CCc3ccccc3)CC2)CN(Cc2ccccn2)C1=O (stereo not shown) [Example 157, hydrochloride]
> 7.00

Request the reported pKi associated with O=C1N(c2ccccc2)CC2(CCN(CC(O)c3ccccc3)CC2)OC12CC2 (stereo not shown)
> 7.00

Fill in the blank: the reported pKi of CC(C)C1OC2(CCN(CCc3ccccc3O)CC2)CN(c2ccccc2F)C1=O (stereo not shown) is ____.
> 7.00

So what's the measured pKi for this one? CC1OC2(CCN(CCc3ccncc3Cl)CC2)CN(c2ccccc2)C1=O (stereo not shown) [Example 50, hydrochloride]
> 6.30

Record request: pKi value, item C[C@H]1OC2(CCN(C[C@H](O)c3ccccc3)CC2)CN(c2ccccc2)C1=O [Example 151a]
> 6.30

What does the record list as pKi for COCCC=C1OC2(CCN(CCc3ccccc3)CC2)CN(c2ccccc2F)C1=O ?
> 6.30
